Tested on: T47D
Test: Cytotoxicity against human T47D cells assessed as growth inhibition after 48 hrs by SRB assay
Type: functional
Experimental Endpoint: GI50 (µM)

• O=C1c2ccccc2C(=O)c2c1ccc1nc(SCCN3CCCC3)[nH]c21 = 17.5
• CN(C)CCCSc1nc2ccc3c(c2[nH]1)C(=O)c1ccccc1C3=O = 8.73
• CCSc1nc2ccc3c(c2[nH]1)C(=O)c1ccccc1C3=O = 4.21
• CCCSc1nc2ccc3c(c2[nH]1)C(=O)c1ccccc1C3=O = 2.66

* * *

Tested on: NCI-H226
Assay: Cytotoxicity against human NCI-H226 cells assessed as cell growth at 10 uM after 48 hrs by SRB assay
Assay type: functional
Details: NCI-H226, 48 h, read-out: Activity
Experimental Endpoint: growth at 10 µM (%)

* CCSc1nc2ccc3c(c2[nH]1)C(=O)c1ccccc1C3=O | 62.1
* O=C1c2ccccc2C(=O)c2c1ccc1[nH]c(=S)[nH]c21 | 83.7
* O=C1c2ccccc2C(=O)c2c1ccc1nc3n(c21)CCS3 | 80.5
* CN(C)CCCSc1nc2ccc3c(c2[nH]1)C(=O)c1ccccc1C3=O | 74.1
* O=C1c2ccccc2C(=O)c2c1ccc1nc(SCCN3CCCC3)[nH]c21 | 88.1
* CCCSc1nc2ccc3c(c2[nH]1)C(=O)c1ccccc1C3=O | 50.2

* * *

Tested on: DU-145
Experiment: Cytotoxicity against human DU145 cells assessed as growth inhibition after 48 hrs by SRB assay
Assay type: functional
Settings: DU-145, 48 h
Experimental Endpoint: TGI

- CN(C)CCCSc1nc2ccc3c(c2[nH]1)C(=O)c1ccccc1C3=O: 12.9 µM
- CCCSc1nc2ccc3c(c2[nH]1)C(=O)c1ccccc1C3=O: > 100 µM
- O=C1c2ccccc2C(=O)c2c1ccc1nc(SCCN3CCCC3)[nH]c21: 14.9 µM
- CCSc1nc2ccc3c(c2[nH]1)C(=O)c1ccccc1C3=O: > 100 µM

* * *

Below, each entry is listed with its recorded growth at 10 µM.
Test: Cytotoxicity against human Hs578T cells assessed as cell growth at 10 uM after 48 hrs by SRB assay
Format: functional
Conditions: Hs-578T, read-out: Activity
Experimental Endpoint: growth at 10 µM (%)

* CN(C)CCCSc1nc2ccc3c(c2[nH]1)C(=O)c1ccccc1C3=O | 69.3
* O=C1c2ccccc2C(=O)c2c1ccc1[nH]c(=S)[nH]c21 | 104
* CCSc1nc2ccc3c(c2[nH]1)C(=O)c1ccccc1C3=O | 85.4
* CCCSc1nc2ccc3c(c2[nH]1)C(=O)c1ccccc1C3=O | 33.3

* * *

Tested on: HCT-116
Experiment: Cytotoxicity against human HCT116 cells assessed as growth inhibition after 48 hrs by SRB assay
Assay type: functional
Conditions: HCT-116, 48 h
Experimental Endpoint: GI50 (nM)

• CCSc1nc2ccc3c(c2[nH]1)C(=O)c1ccccc1C3=O = 5590
• CCCSc1nc2ccc3c(c2[nH]1)C(=O)c1ccccc1C3=O = 3060
• O=C1c2ccccc2C(=O)c2c1ccc1nc(SCCN3CCCC3)[nH]c21 = 1640
• CN(C)CCCSc1nc2ccc3c(c2[nH]1)C(=O)c1ccccc1C3=O = 1850

* * *

System: SF-295
Assay: Cytotoxicity against human SF295 cells assessed as cell growth at 10 uM after 48 hrs by SRB assay
Assay type: functional
Settings: SF-295, 48 h, read-out: Activity
Doc: threshold 80% (exclusive). Items with growth at 10 µM beneath it return 1.0; others return 0.0.

- CCCSc1nc2ccc3c(c2[nH]1)C(=O)c1ccccc1C3=O: 1.0
- O=C1c2ccccc2C(=O)c2c1ccc1nc(SCCN3CCCC3)[nH]c21: 1.0
- CN(C)CCCSc1nc2ccc3c(c2[nH]1)C(=O)c1ccccc1C3=O: 1.0
- CCSc1nc2ccc3c(c2[nH]1)C(=O)c1ccccc1C3=O: 0.0
- O=C1c2ccccc2C(=O)c2c1ccc1[nH]c(=S)[nH]c21: 0.0

* * *

Test system: HL-60(TB)
Experiment: Cytotoxicity against human HL-60(TB) cells assessed as growth inhibition after 48 hrs by SRB assay
Format: functional
Conditions: HL-60, 48 h
Experimental Endpoint: TGI (µM)

* CN(C)CCCSc1nc2ccc3c(c2[nH]1)C(=O)c1ccccc1C3=O | 8.52
* O=C1c2ccccc2C(=O)c2c1ccc1nc(SCCN3CCCC3)[nH]c21 | 11.9

* * *

System: ACHN
Experiment: Cytotoxicity against human ACHN cells assessed as growth inhibition after 48 hrs by SRB assay
Assay type: functional
Experimental Endpoint: TGI (µM)

• CCCSc1nc2ccc3c(c2[nH]1)C(=O)c1ccccc1C3=O = 42.8
• CN(C)CCCSc1nc2ccc3c(c2[nH]1)C(=O)c1ccccc1C3=O = 15
• O=C1c2ccccc2C(=O)c2c1ccc1nc(SCCN3CCCC3)[nH]c21 = 16.5

* * *

Tested on: COLO 205
Test: Cytotoxicity against human COLO205 cells assessed as growth inhibition after 48 hrs by SRB assay
Format: functional
Conditions: COLO 205, 48 h
Experimental Endpoint: GI50 (µM)

• CN(C)CCCSc1nc2ccc3c(c2[nH]1)C(=O)c1ccccc1C3=O = 3.41
• CCSc1nc2ccc3c(c2[nH]1)C(=O)c1ccccc1C3=O = 17.4
• O=C1c2ccccc2C(=O)c2c1ccc1nc(SCCN3CCCC3)[nH]c21 = 3.07

* * *

Test system: HCT-15
Experiment: Cytotoxicity against human HCT15 cells assessed as cell growth at 10 uM after 48 hrs by SRB assay
Assay type: functional
Conditions: HCT-15, 48 h, read-out: Activity
Experimental Endpoint: growth at 10 µM (%)

• CN(C)CCCSc1nc2ccc3c(c2[nH]1)C(=O)c1ccccc1C3=O = 36.3
• O=C1c2ccccc2C(=O)c2c1ccc1nc(SCCN3CCCC3)[nH]c21 = 40.4
• CCSc1nc2ccc3c(c2[nH]1)C(=O)c1ccccc1C3=O = 32.3
• CCCSc1nc2ccc3c(c2[nH]1)C(=O)c1ccccc1C3=O = 67.7
• O=C1c2ccccc2C(=O)c2c1ccc1nc3n(c21)CCS3 = 57.1
• O=C1c2ccccc2C(=O)c2c1ccc1[nH]c(=S)[nH]c21 = 83.8

* * *

Tested on: MOLT-4
Test: Cytotoxicity against human MOLT4 cells assessed as cell growth at 10 uM after 48 hrs by SRB assay
Assay type: functional
Details: MOLT-4, 48 h, read-out: Activity
Experimental Endpoint: growth at 10 µM

- CCSc1nc2ccc3c(c2[nH]1)C(=O)c1ccccc1C3=O: 101%
- O=C1c2ccccc2C(=O)c2c1ccc1nc(SCCN3CCCC3)[nH]c21: 30.9%
- O=C1c2ccccc2C(=O)c2c1ccc1nc3n(c21)CCS3: 58.4%
- O=C1c2ccccc2C(=O)c2c1ccc1[nH]c(=S)[nH]c21: 109%
- CCCSc1nc2ccc3c(c2[nH]1)C(=O)c1ccccc1C3=O: 68.1%
- CN(C)CCCSc1nc2ccc3c(c2[nH]1)C(=O)c1ccccc1C3=O: -2.9%

* * *

System: MDA-MB-231
Experiment: Cytotoxicity against human MDA-MB-231 cells assessed as cell growth at 10 uM after 48 hrs by SRB assay
Type: functional
Conditions: MDA-MB-231, 48 h, read-out: Activity
In this section we review reported growth at 10 µM values for a set of molecules.
Experimental Endpoint: growth at 10 µM (%)

- CCSc1nc2ccc3c(c2[nH]1)C(=O)c1ccccc1C3=O: 84.8
- O=C1c2ccccc2C(=O)c2c1ccc1[nH]c(=S)[nH]c21: 108
- O=C1c2ccccc2C(=O)c2c1ccc1nc(SCCN3CCCC3)[nH]c21: 63.5
- CN(C)CCCSc1nc2ccc3c(c2[nH]1)C(=O)c1ccccc1C3=O: 56.2
- CCCSc1nc2ccc3c(c2[nH]1)C(=O)c1ccccc1C3=O: 26.4
- O=C1c2ccccc2C(=O)c2c1ccc1nc3n(c21)CCS3: 94

* * *

Tested on: MDA-MB-435
Test: Cytotoxicity against human MDA-MB-435 cells assessed as growth inhibition after 48 hrs by SRB assay
Type: functional
Details: MDA-MB-435, 48 h
Experimental Endpoint: TGI (µM)

- O=C1c2ccccc2C(=O)c2c1ccc1nc(SCCN3CCCC3)[nH]c21: 16.2
- CN(C)CCCSc1nc2ccc3c(c2[nH]1)C(=O)c1ccccc1C3=O: 22.2

* * *

Tested on: KM12
Test: Cytotoxicity against human KM12 cells assessed as growth inhibition after 48 hrs by SRB assay
Assay type: functional
Details: KM12, 48 h, read-out: LC50 (the source's name)
Experimental Endpoint: CC50 (µM)

- CN(C)CCCSc1nc2ccc3c(c2[nH]1)C(=O)c1ccccc1C3=O: 27.4
- O=C1c2ccccc2C(=O)c2c1ccc1nc(SCCN3CCCC3)[nH]c21: 24.4

* * *

Tested on: SF-268
Experiment: Cytotoxicity against human SF268 cells assessed as growth inhibition after 48 hrs by SRB assay
Type: functional
Conditions: SF-268, 48 h
Experimental Endpoint: TGI (µM)

* O=C1c2ccccc2C(=O)c2c1ccc1nc(SCCN3CCCC3)[nH]c21 | 22.8
* CN(C)CCCSc1nc2ccc3c(c2[nH]1)C(=O)c1ccccc1C3=O | 17.7
